Reported Ki on 5-hydroxytryptamine receptor 1A (Rattus norvegicus, UniProt P19327) for assorted molecules, compiled from publications.
Molecular target: 5-hydroxytryptamine receptor 1A (Rattus norvegicus, UniProt P19327)
Sequence (P19327 whole entry): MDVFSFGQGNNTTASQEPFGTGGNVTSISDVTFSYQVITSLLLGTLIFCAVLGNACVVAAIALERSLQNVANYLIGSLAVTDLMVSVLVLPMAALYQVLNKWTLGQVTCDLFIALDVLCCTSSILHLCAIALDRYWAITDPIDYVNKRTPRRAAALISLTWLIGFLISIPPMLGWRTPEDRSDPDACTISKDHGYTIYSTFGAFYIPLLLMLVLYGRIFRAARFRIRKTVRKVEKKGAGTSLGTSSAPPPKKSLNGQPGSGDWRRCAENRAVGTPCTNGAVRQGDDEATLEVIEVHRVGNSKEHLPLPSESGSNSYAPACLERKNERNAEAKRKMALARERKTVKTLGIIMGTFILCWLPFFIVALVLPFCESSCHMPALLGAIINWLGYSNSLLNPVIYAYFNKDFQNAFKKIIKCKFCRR
Numeric only. Scale: nM

Input line: Kindly indicate its recorded Ki. Item: O=S(=O)(c1cnc2ccccc2c1)N1CCC(CN2CCN(c3ccc(Cl)cc3)CC2)CC1
Output line: 462

Input line: Report measured Ki; entry is CN1CCc2ccc3c(=O)oc4cccc5c4c3c2[C@H]1C5
Output line: 2000

Input line: Answer with the recorded Ki for the molecule listed here: COc1ccccc1N1CCN(CCCCOc2ccc3c4c(c(=O)oc3c2)CCC4)CC1
Output line: 0.2

Input line: Look up and state reported Ki for CCCN(CCCN1C(=O)c2ccccc2C1=O)C1COc2cccc(OC)c2C1 (centres undefined)
Output line: 50.1

Input line: Output Ki of c1ccc(C2Oc3ccccc3OC2COCCCCN2CCC(c3nc4ccccc4o3)CC2)cc1 (centres undefined)
Output line: 17

Input line: Give Ki for O=C1C2C3C=CC(C3)C2C(=O)N1OCCCN1CCN(c2cccc(C(F)(F)F)c2)CC1 (centres undefined)
Output line: 5.13

Input line: State, in one line, measured Ki of COc1ccc(-c2c(=O)n(CCCCN3CC=C(c4c[nH]c5ccc(Br)cc45)CC3)c(=O)n3ccccc23)cc1
Output line: 23.1

Input line: Give me measured Ki, please, for this molecule: Cc1ccc(-c2c(=O)n(CCCCN3CCC(c4c[nH]c5ccc(F)cc45)CC3)c(=O)n3ccccc23)cc1
Output line: 38.5

* * *

Values of Ki for 5-hydroxytryptamine receptor 1A (Rattus norvegicus), collected from a number of published sources:
Biological target: 5-hydroxytryptamine receptor 1A (Rattus norvegicus)
Sequence (P19327 whole entry): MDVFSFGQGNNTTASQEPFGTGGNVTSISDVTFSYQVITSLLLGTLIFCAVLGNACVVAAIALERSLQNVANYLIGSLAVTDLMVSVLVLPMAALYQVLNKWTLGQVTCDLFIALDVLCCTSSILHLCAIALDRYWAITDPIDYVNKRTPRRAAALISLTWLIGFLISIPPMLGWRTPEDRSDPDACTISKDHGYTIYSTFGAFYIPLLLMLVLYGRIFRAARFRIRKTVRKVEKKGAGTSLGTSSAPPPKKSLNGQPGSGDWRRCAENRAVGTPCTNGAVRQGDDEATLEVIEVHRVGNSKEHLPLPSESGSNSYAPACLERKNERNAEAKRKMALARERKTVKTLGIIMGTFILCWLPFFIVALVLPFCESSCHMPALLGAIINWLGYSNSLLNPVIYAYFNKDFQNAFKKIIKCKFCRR

Input line: // Input: NCCc1ccc(O)c(O)c1 . Output its Ki only.
Output line: > 10000 nM

Input line: Tell me measured Ki for O=c1ccc(OCCCN2CCC(c3noc4cc(F)ccc34)CC2)nn1-c1ccccc1Cl please.
Output line: 78 nM

Input line: Find the measured Ki of Cl.O=C1C2C3C=CC(C4CCC34)C2C(=O)N1CCCCN1CCN(c2cccc(C(F)(F)F)c2)CC1 (stereo not given) and report it.
Output line: 57 nM

Input line: // Input: CCOc1ccccc1N1CCN(CCCCCCCn2ncc(N3CCN(CC4COc5ccccc5O4)CC3)c(Cl)c2=O)CC1 (stereo not given) . Output its Ki only.
Output line: 49.8 nM

Input line: Name the recorded Ki of the item CCOc1ccccc1N1CCN(CCCNC(=O)c2ccccn2)CC1 in your answer.
Output line: 85.6 nM

Input line: Write down Ki measured for item O=c1ccc(OCCCN2CCC(c3noc4cc(F)ccc34)CC2)nn1-c1ccccc1
Output line: 61.3 nM

Input line: State its Ki: O=c1ccc(OCCCN2CCC(c3noc4cc(F)ccc34)CC2)nn1-c1ccc(Cl)cc1Cl
Output line: 191 nM

Input line: Specify Ki for CN1COc2ccc(OCCCN3CCC(c4noc5cc(F)ccc45)CC3)cc2C1=O and stop.
Output line: 187 nM

Input line: Annotate the compound CN1CCc2cccc3c2[C@H]1Cc1cccc(-c2ccccc2)c1-3 with its measured Ki.
Output line: 1.8 nM

Input line: Could you please provide reported Ki for Oc1ccc(N2CCN(Cc3cn(-c4ccc(Cl)cc4)nn3)CC2)cc1 ? Thanks!
Output line: 7980 nM

Input line: Consider the compound CN1CCc2ccc(O)cc2C(c2ccccc2)C1 (racemic) and give its recorded Ki.
Output line: > 1000 nM

Input line: Look up and report measured Ki for this entry: O=C(NCCN1CCN(c2ccc(F)cc2)CC1)c1ccccn1
Output line: 82 nM

Input line: State, in one line, measured Ki of N#Cc1ccccc1N1CCN(CCCNC(=O)c2ccccn2)CC1
Output line: 108 nM

Input line: Give the reported value of Ki for this record: O=C1C2CCCN2C(=O)N1CCCN1CCN(c2ccccc2)CC1 (stereo not given)
Output line: 19.2 nM

Input line: Answer with the recorded Ki for the compound listed here: COc1ccccc1N1CCN(CCCCN2Cc3ccc4ccccc4c3C2=O)CC1
Output line: 13 nM

Input line: Answer with the recorded Ki for the compound listed here: CC(C)C(=O)Nc1cccc(N2CCN(CCCN3C(=O)C4CCCCN4C3=O)CC2)c1.Cl (stereo not given)
Output line: > 1000 nM

Input line: Give the value of Ki reported for the following: COc1ccc2[nH]cc(C3=CCN(CCCCN4C(=O)CC(c5c[nH]c6ccccc56)C4=O)CC3)c2c1 (racemic)
Output line: 3.2 nM

Input line: Retrieve Ki measured for Cn1c(=O)sc2cc(CCCCN3CCC(c4ccccc4)CC3)ccc21 and print it.
Output line: 10 nM

Input line: State, in one line, measured Ki of FC(F)(F)c1ccccc1OC(CCN1CCN(c2nsc3ccccc23)CC1)c1ccccc1 (stereo not given)
Output line: 446 nM

Input line: State its Ki for this compound: Cc1ccc2c(c1)ncc1c(=O)n(CCCCN3CCN(c4cccc(Cl)c4)CC3)cnc12
Output line: 172 nM

Input line: Identify measured Ki associated with COc1ccccc1N1CCN(CCCCOc2ccc3c(C)cc(=O)oc3c2)CC1
Output line: 0.012 nM

Input line: Look up and state reported Ki for CCCN(C)c1cccc(CNCC2CCN(C(=O)c3ccc(Cl)c(Cl)c3)CC2)n1
Output line: 11.7 nM

Input line: Return Ki for the following compound: O=C1c2ccccc2S(=O)(=O)N1CCCCN1CCN(c2cccc(C(F)(F)F)c2)CC1
Output line: 100 nM

Input line: Report Ki for O=C1C2C3C=CC(C3)C2C(=O)N1OCCN1CCN(c2cccc3ccccc23)CC1 (stereo not given)
Output line: 1.58 nM

Input line: Given the compound CCCN(CCC)C1CCc2ccc3[nH]cc(C(=O)c4ccccc4)c3c2C1 (stereo not given) , write its reported Ki.
Output line: 8.6 nM

Input line: Tell me its Ki given COc1ccc(N2CCN(CCCOc3ccc4c(c3)C(=O)N(C)CC4)CC2)cc1 as the entry.
Output line: > 10000 nM

Input line: Specify reported Ki for the compound shown: CC(C)Oc1ccccc1N1CCN(CCCCCCCn2ncc(Cl)c(N3CCN(CC4COc5ccccc5O4)CC3)c2=O)CC1 (stereo not given)
Output line: 1.52 nM

Input line: Give the measured Ki for O=c1c2cnc3ccccc3c2ncn1CCCCN1CCN(c2cccc(C(F)(F)F)c2)CC1
Output line: 127 nM

Input line: Specify measured Ki for O=C1c2ccccc2C(=O)N1CCCCN1CCN(c2ccccc2Cl)CC1 .
Output line: 5.01 nM

Input line: Return Ki for the following compound: Cn1c(=O)c2c(nc3n(CCCCCN4CCN(c5ccccc5O)CC4)c(-c4ccccc4)cn23)n(C)c1=O
Output line: 9 nM

Input line: For the compound O=C(N[C@H]1CC(=O)N(CCCCN2CCN(c3cccc(Cl)c3)CC2)C1=O)C1CCCC1 , report Ki.
Output line: 28 nM

Input line: Give Ki for Cn1c(=O)c2c(ncn2CCCCN2CCN(c3ccc(Cl)c(Cl)c3)CC2)n(C)c1=O
Output line: 105 nM

Input line: Give reported Ki value for c1ccc(N2CCN(Cc3cn(-c4cccc5ccccc45)c4ccccc34)CC2)cc1
Output line: 545 nM

Input line: Report measured Ki; entry is COc1ccccc1N1CCN(CCCCOc2ccc3c4c(c(=O)oc3c2C)CCC4)CC1
Output line: 349 nM

Input line: Give the reported value of Ki for this record: O=C1c2ccccc2S(=O)(=O)N1CCCCN1CCN(c2cc(Cl)cc3c2OCCO3)CC1
Output line: 0.708 nM

Input line: Supply recorded Ki for Cn1c(=O)c2c(nc3n2CCCN3CCCCN2CCN(c3ccccc3)CC2)n(C)c1=O here.
Output line: 2.1 nM

Input line: Read off the recorded Ki for CCC1(CCCCN2CCN(c3cccc(Cl)c3)CC2)C(=O)Nc2ccc(F)cc21 (stereo not given)
Output line: 111 nM

Input line: Return Ki (reported value) for this compound: COc1ccccc1N1CCN(CCCCN2C(=O)[C@H]3CCCC[C@H]3C2=O)CC1
Output line: 4 nM

Input line: Return Ki (reported value) for this compound: Cc1ccc2ncc3c(=O)n(CCCCN4CCN(c5cccc(Cl)c5)CC4)cnc3c2c1
Output line: 67 nM

Input line: Please indicate Ki recorded for CCc1ccc(CNCC2(F)CCN(C(=O)c3ccc(F)c(Cl)c3)CC2)nc1
Output line: 8.91 nM
